Tested on: S. aureus ATCC 6538P
Assay: Antibacterial activity: MIC/MBC determination and disc-diffusion
Format: cell-based, Staphylococcus aureus
Details: S. aureus ATCC 6538P; disc-diffusion; — = zone not observed
Measured endpoint: diameter of inhibition zone (mm)

compound=C[Si]1(C)OB(O)c2cc(F)c(S(=O)(=O)N3CCOCC3)c(F)c21 measured_endpoint="diameter of inhibition zone" endpoint_result=16
compound=C[Si]1(C)OB(O)c2ccc(SCC(=O)c3ccccc3)c(F)c21 measured_endpoint="diameter of inhibition zone" endpoint_result=31
compound=C[Si]1(C)OB(O)c2ccc(SCCS(=O)(=O)c3ccccc3)c(F)c21 measured_endpoint="diameter of inhibition zone" endpoint_result=26
compound="C[Si]1(C)OB(O)c2cc(F)c(SC3CC(=O)N(c4ccc(Br)c(C(F)(F)F)c4)C3=O)c(F)c21 (centres unmarked)" measured_endpoint="diameter of inhibition zone" endpoint_result=20
compound="C[Si]1(C)OB(O)c2ccc(SC3CC(=O)NC3=O)c(F)c21 (centres unmarked)" measured_endpoint="diameter of inhibition zone" endpoint_result=20
compound=C[Si]1(C)OB(O)c2cc(F)c(S(=O)(=O)Cl)c(F)c21 measured_endpoint="diameter of inhibition zone" endpoint_result=14
compound=CC(=O)CSc1ccc2c(c1F)[Si](C)(C)OB2O measured_endpoint="diameter of inhibition zone" endpoint_result=25
compound=Cc1cc(NC(=O)CCSc2c(F)cc3c(c2F)[Si](C)(C)OB3O)no1 measured_endpoint="diameter of inhibition zone" endpoint_result=21
compound="C[Si]1(C)OB(O)c2cc(F)c(SC3CC(=O)N(c4ccc(F)cc4)C3=O)c(F)c21 (centres unmarked)" measured_endpoint="diameter of inhibition zone" endpoint_result=22
compound="C[Si]1(C)OB(O)c2ccc(SC3CC(=O)N(c4ccc(F)cc4)C3=O)c(F)c21 (centres unmarked)" measured_endpoint="diameter of inhibition zone" endpoint_result=23
compound=CCOP(=O)(OCC)Sc1c(F)cc2c(c1F)[Si](C)(C)OB2O measured_endpoint="diameter of inhibition zone" endpoint_result=32
compound=C[Si]1(C)OB(O)c2cc(F)c(SCCC(=O)Nc3cnccn3)c(F)c21 measured_endpoint="diameter of inhibition zone" endpoint_result=24
compound=C[Si]1(C)OB(O)c2cc(F)c(SCCC#N)c(F)c21 measured_endpoint="diameter of inhibition zone" endpoint_result=30
compound="CC(=O)NC[C@H]1CN(c2ccc(N3CCOCC3)c(F)c2)C(=O)O1 [LIN, linezolid, reference compound]" measured_endpoint="diameter of inhibition zone" endpoint_result=25
compound=CC(=O)CCSc1c(F)cc2c(c1F)[Si](C)(C)OB2O measured_endpoint="diameter of inhibition zone" endpoint_result=23
compound=C[Si]1(C)OB(O)c2cc(F)c(SCCC(N)=O)c(F)c21 measured_endpoint="diameter of inhibition zone" endpoint_result=24
compound=C[Si]1(C)OB(O)c2cc(F)c(SCCC(=O)ON3C(=O)CCC3=O)c(F)c21 measured_endpoint="diameter of inhibition zone" endpoint_result=15
compound=C[Si]1(C)OB(O)c2cc(F)c(SCCC(=O)Nc3ncccn3)c(F)c21 measured_endpoint="diameter of inhibition zone" endpoint_result=17
compound="C[Si]1(C)OB(O)c2ccc(SC3CC(=O)N(c4ccc(Br)c(C(F)(F)F)c4)C3=O)c(F)c21 (centres unmarked)" measured_endpoint="diameter of inhibition zone" endpoint_result=19
compound=C[Si]1(C)OB(O)c2ccc(S)c(F)c21 measured_endpoint="diameter of inhibition zone" endpoint_result=20
compound=C[Si]1(C)OB(O)c2cc(F)c(SCCC(=O)OCCCCCC[n+]3ccccc3)c(F)c21 measured_endpoint="diameter of inhibition zone" endpoint_result=19
compound=C[Si]1(C)OB(O)c2cc(F)c(S)c(F)c21 measured_endpoint="diameter of inhibition zone" endpoint_result=19
compound=C[Si]1(C)OB(O)c2cc(F)c(S(=O)(=O)Nc3ccc(F)cc3)c(F)c21 measured_endpoint="diameter of inhibition zone" endpoint_result=22
compound=C[Si]1(C)OB(O)c2ccc(SC(=O)c3ccc(C(F)(F)F)cc3)c(F)c21 measured_endpoint="diameter of inhibition zone" endpoint_result=11
compound=C[Si]1(C)OB(O)c2cc(F)c(SCCS(=O)(=O)c3ccccc3)c(F)c21 measured_endpoint="diameter of inhibition zone" endpoint_result=30
compound="C[Si]1(C)OB(O)c2cc(F)c(SC3CC(=O)NC3=O)c(F)c21 (centres unmarked)" measured_endpoint="diameter of inhibition zone" endpoint_result=20
compound=C[Si]1(C)OB(O)c2cc(F)c(SCCC(=O)N3CCOCC3)c(F)c21 measured_endpoint="diameter of inhibition zone" endpoint_result=25
compound=COC(=O)CCSc1ccc2c(c1F)[Si](C)(C)OB2O measured_endpoint="diameter of inhibition zone" endpoint_result=27
compound=C[Si]1(C)OB(O)c2ccc(SCCC(=O)OCCCCCC[n+]3ccccc3)c(F)c21 measured_endpoint="diameter of inhibition zone" endpoint_result=20

The measured values listed here are drawn from paper PMC11110727.
